target entity: α7 neuronal nicotinic receptors (Rattus norvegicus)
Construct: against peak responses of cultured hippocampal neurones to Ach (1 mM) applied for 2 secs; endogenous in cells; host or cells: cultured rat embryonic hippocampal neurones
Sequence (Q05941 23-502): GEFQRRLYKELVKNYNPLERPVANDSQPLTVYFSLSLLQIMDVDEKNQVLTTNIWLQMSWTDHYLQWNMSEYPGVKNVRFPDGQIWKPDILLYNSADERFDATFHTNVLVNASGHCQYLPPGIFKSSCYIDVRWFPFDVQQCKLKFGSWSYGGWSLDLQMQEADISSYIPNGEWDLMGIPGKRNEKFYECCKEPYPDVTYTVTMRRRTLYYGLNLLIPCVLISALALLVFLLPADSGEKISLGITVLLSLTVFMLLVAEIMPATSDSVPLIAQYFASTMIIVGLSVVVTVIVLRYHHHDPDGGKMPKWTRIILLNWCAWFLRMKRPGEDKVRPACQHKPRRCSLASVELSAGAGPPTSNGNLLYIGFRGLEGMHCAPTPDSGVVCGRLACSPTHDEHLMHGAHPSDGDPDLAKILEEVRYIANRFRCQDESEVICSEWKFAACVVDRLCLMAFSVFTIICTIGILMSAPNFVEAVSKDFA
experiment summary: patch clamp, antagonism of Ach-induced inward currents in cultured hippocampal neurones
Assay type: cell-based
assay readout: pIC50
Kindly note that pIC50 refers to -log10 of the concentration in mol/L and answer with the value alone.

[[record]]
compound = "CC1(C)CCCC(C)(N)C1 (centres unmarked) [MRZ 2/621, 1-Amino-1,3,3-trimethylcyclohexane]"
target_entity = "α7 neuronal nicotinic receptors (Rattus norvegicus)"
assay_readout = "pIC50"
recorded_measurement = 6.19


For the compound shown here, CN(C)C1(C)CC(C)(C)CC(C)(C)C1 [MRZ 2/642] , give the reported pIC50.
6.00
